A collection of variants and their measured aptazyme ON/OFF ratio
B1: Pistol ribozyme (parent)
chain: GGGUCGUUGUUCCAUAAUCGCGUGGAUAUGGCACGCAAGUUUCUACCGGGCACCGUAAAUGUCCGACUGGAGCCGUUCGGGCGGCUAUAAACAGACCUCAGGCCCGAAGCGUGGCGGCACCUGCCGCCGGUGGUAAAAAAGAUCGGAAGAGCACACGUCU

Variants of: B1
method: aptazyme ON/OFF ratio, guanine; higher = stronger switching; co-transcriptional cleavage with and without guanine
assay readout: aptazyme ON/OFF ratio

> print(dat)
                variant.designation  meas.value
 1            U7A U8C G9C U11A C12A        1.08
 2                     U7A G9U U10A         1.4
 3               G9A U10G C12A C13G        1.14
 4      U7G G9A U10A U11A C12U C13U        1.17
 5            U7G U8G G9C U10A U11A        1.67
 6      U7A G9C U10C U11C C12U C13A        1.05
 7                     U7A G9C U10C        2.21
 8                U8G G9C U10G C13A        1.27
 9      U7C G9A U10C U11C C12A C13G        1.15
10       U7A U8A G9C U10G C12G C13G        1.11
11           U8A G9C U11G C12G C13G        1.14
12       U7A U8G G9A U10A U11C C13U        1.04
13           U7C U8G U11G C12A C13A         1.1
14       U7C U8G G9A U10C U11C C13U        1.02
15      U8G G9A U10A U11A C12G C13U        1.27
16                U7C G9A U11C C13U        1.06
17          G9A U10A U11A C12A C13U        1.97
18           U8C G9U U10C U11C C13A        1.03
19      U7G U8C U10C U11C C12U C13U        1.11
20            U7C U8G G9C U11G C13A        1.18
21                U8G G9U U10A U11C        1.01
22           U7G G9C U11A C12U C13A        1.42
23           U7C U8G U10G U11G C12G        1.21
24      U8C G9C U10C U11C C12G C13U        1.06
25                    U8A U10C U11G        1.18
26       U7C U8A G9A U10A U11C C13U        1.05
27           U8A G9A U11C C12U C13A        1.23
28       U7A U8A G9U U10C U11C C12A        1.04
29           U7G G9U U10A U11C C13A        1.35
30       U7A U8C G9U U10G U11A C13U        1.06
31      U7G G9U U10A U11G C12U C13U        1.27
32           U7A G9C U10G C12A C13G        1.09
33       U7A U8G G9A U10G C12G C13U        1.33
34                U7A G9C U11A C12G        1.08
35  U7A U8C G9C U10C U11C C12A C13A       0.998
36                     U7A U8G U10A        2.44
37       U7G U8A G9U U11C C12A C13G        1.07
38           U7G U8C U10C U11A C12A        1.44
39       U7C U8A G9U U10G C12U C13G        1.25
40           U7A U8C U10C U11C C13A        1.03
41       U7C U8G G9A U10A U11G C12U        1.38
42                U8G G9U U10C C12G        1.41
43       U7A U8C G9A U10G U11C C12A        1.19
44           U8C G9C U11C C12U C13U        1.07
45                     U7G G9A C12U        1.41
46       U7C U8C G9C U11A C12A C13A         1.1
47                U8C G9C U10C C13U        1.12
48           U7C G9C U10C U11A C12U           1
49      U8A G9A U10A U11A C12A C13G         1.1
50                      U7C U8G G9C        1.08
51                 U7A U8G G9U U11A        2.05
52           U7A G9A U10A C12A C13U        1.29
53  U7A U8C G9C U10C U11A C12G C13U         1.1
54            U7A U8G G9U U10C C12A        1.41
55       U7C U8G G9A U10G U11G C12U        1.36
56      U7G G9U U10A U11A C12U C13G        1.29
57           U8C G9A U10A U11G C13A        1.19
58            U7A U8C G9A U10C C13U        1.12
59           U8G G9U U10C C12G C13U        1.36
60      U8A G9U U10C U11C C12U C13G        1.04
61           U7C U8G U10C U11A C12A        2.52
62           U8C G9U U10G U11A C13A         1.1
63           U7C G9A U10C U11A C13U        1.33
64               U7C U10C C12G C13U        1.21
65                U7C G9U U11A C13U        1.25
66  U7A U8C G9U U10A U11C C12A C13G        1.14
67          U7A U10C U11C C12U C13G        1.08
68      U7G U8G U10G U11A C12U C13A        1.33
69       U7G U8A G9U U10G U11C C13G        1.04
70            U7G U8A G9A U10G C13A        1.08
71                     U7C U8A C12G        1.37
72       U7C U8A G9C U10G U11C C12G        1.18
73      U7G U8C U10G U11A C12A C13G         1.1
74               U8G U10C U11C C13G        1.03
75       U7C U8C G9A U10A U11G C13G        1.19
76      U8G G9C U10C U11C C12U C13U        1.04
77           U8A G9A U11A C12G C13G         1.2
78           U8C G9U U11A C12U C13A        1.36
79       U7A U8A G9U U10G U11C C12A        1.33
80  U7G U8A G9C U10A U11A C12U C13A        1.04
81       U7G U8G G9A U10G C12G C13G        1.16
82       U7G U8G G9A U10A C12G C13U        1.22
83           U8A G9C U11G C12A C13A         1.1
84  U7C U8C G9A U10G U11C C12G C13G        1.26
85           U7A U8C U10C C12G C13A        1.34
86       U7G U8G G9U U10A C12A C13G        1.14
87      U7C G9U U10C U11C C12G C13A        1.03
88                U7G U8G C12U C13G        1.39
89  U7C U8A G9C U10A U11A C12A C13G        1.12
90                     U7A U8A C13G        1.22
91       U7G U8G G9U U11A C12A C13A        1.07
